- Assayed Target: T1, SaFapR (Staphylococcus aureus RN4220, UniProt Q2FZ56 1-190)
- T1 sequence: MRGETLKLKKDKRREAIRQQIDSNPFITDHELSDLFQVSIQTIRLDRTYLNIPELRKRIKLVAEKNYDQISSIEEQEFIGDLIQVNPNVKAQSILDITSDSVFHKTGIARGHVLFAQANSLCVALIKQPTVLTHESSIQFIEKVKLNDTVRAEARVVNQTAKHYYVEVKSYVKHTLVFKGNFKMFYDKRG
- Assay Explanation: ITC; first dimer, sequential binding model, 25 C; ITC: 50 mM Tris-HCl pH 8, 150 mM NaCl, 25 C; EMSA: 20 mM Tris-HCl pH 8, 350 mM NaCl, 10 mM MgCl2, 5 mM DTT, 15 min room temperature, native 5% PAGE in 45 mM Tris-borate pH 8, 1 mM EDTA
- Condition Context: protein: recombinant; tags: N-terminal His-tag removed with TEV protease; chain copies: 2

>  <Binder>
PfapR operator 40 bp (dsDNA) DNA 1: GCCAATTATATACTACTATTAGTACCTAGTCTTAATTCCG DNA 2: CGGAATTAAGACTAGGTACTAATAGTAGTATATAATTGGC

>  <Kd / nM>
0.5

$$$$
